system: HIV-1 single-round infectious reporter virus; assay: microbe, parasite or virus in culture; assay type: cell-based; details: Human immunodeficiency virus 1, HeLa-CD4/CCR5, 72 h, read-out: EC50 Group from Table 1
pEC50: −log10 of the molar value.
Below: a set of entries, each annotated with reported pEC50.

Here is how some molecules turned out for pEC50.
molecule	measurement.kind	value
N=C(NC1CC1)c1ccc(F)c2c(C(=O)C(=O)N3CCN(C(=O)c4ccccc4)CC3)c[nH]c12 [Example 75]	pEC50	> 6.00
COc1ccc(-c2nccs2)c2[nH]cc(C(=O)C(=O)N3CCN(C(=O)c4ccccc4)CC3)c12 [Example 15]	pEC50	> 6.00
O=C(C(=O)N1CCN(C(=O)c2ccccc2)CC1)c1c[nH]c2c(-n3cncn3)ccc(F)c12 [Example 118]	pEC50	> 6.00

Could you please provide reported pEC50 for COc1nc(-c2ccc(F)c3c(C(=O)C(=O)N4CCN(C(=O)c5ccccc5)CC4)c[nH]c23)no1 [Example 29] ? Thanks!
> 6.00

Could you please provide reported pEC50 for O=C(NCc1ccccc1)c1ccc(F)c2c(C(=O)C(=O)N3CCN(C(=O)c4ccccc4)CC3)c[nH]c12 [Example 45] ? Thanks!
> 6.00

Could you please provide reported pEC50 for O=C(NCCc1c[nH]c2ccccc12)c1ccc(F)c2c(C(=O)C(=O)N3CCN(C(=O)c4ccccc4)CC3)c[nH]c12 [Example 48] ? Thanks!
> 6.00

Could you please provide reported pEC50 for O=C(Nc1ccccn1)c1ccc(F)c2c(C(=O)C(=O)N3CCN(C(=O)c4ccccc4)CC3)c[nH]c12 [Example 38] ? Thanks!
> 6.00

====

tested on: HIV-1 single-round infectious reporter virus; experiment: microbe, parasite or virus in culture; type: cell-based; conditions: Human immunodeficiency virus 1, HeLa-CD4/CCR5, 72 h, read-out: EC50 Group from Table 1
measurement.kind: EC50

molecule	value
O=C(C(=O)N1CCN(C(=O)c2ccccn2)CC1)c1c[nH]c2c(-c3nnn(C(F)F)n3)ccc(F)c12	< 1000 nM

Could you please provide reported EC50 for CCN(CC)C(=O)COC(=O)c1cc(-c2ccc(F)c3c(C(=O)C(=O)N4CCN(C(=O)c5ccccc5)CC4)c[nH]c23)n[nH]1 ? Thanks!
< 1000 nM

Could you please provide reported EC50 for CC(=O)Nc1nc(-c2ccc(F)c3c(C(=O)C(=O)N4CCN(C(=O)c5ccccc5)CC4)c[nH]c23)no1 ? Thanks!
< 1000 nM

Could you please provide reported EC50 for O=C(NS(=O)(=O)c1ccccc1)c1ccc(F)c2c(C(=O)C(=O)N3CCN(C(=O)c4ccccc4)CC3)c[nH]c12 ? Thanks!
< 1000 nM
